molecular target: DLL4 (human, UniProt Q9NR61); test: SPR
Sequence (Q9NR61 27-524): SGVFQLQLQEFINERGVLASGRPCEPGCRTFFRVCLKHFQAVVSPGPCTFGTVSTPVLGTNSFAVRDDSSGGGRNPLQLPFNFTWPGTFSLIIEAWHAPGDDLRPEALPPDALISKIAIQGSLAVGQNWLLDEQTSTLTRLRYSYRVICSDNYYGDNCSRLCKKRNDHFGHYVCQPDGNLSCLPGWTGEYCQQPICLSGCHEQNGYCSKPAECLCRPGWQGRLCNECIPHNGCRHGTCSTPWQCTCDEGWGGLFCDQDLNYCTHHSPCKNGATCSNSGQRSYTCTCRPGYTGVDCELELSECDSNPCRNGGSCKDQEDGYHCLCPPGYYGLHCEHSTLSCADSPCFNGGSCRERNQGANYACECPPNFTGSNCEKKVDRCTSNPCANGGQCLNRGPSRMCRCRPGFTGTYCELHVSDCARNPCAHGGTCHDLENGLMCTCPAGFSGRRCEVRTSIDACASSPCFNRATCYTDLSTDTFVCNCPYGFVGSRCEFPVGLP
pKd: −log10 of the molar value.

binder: DVD257 DLL4 arm (antibody, DVD-Ig outer) chain 1: EVQLVESGGGLVQPGGSLRLSCAASGFTFTDNWISWVRQAPGKGLEWVGYISPNSGFTYYADSVKGRFTISADTSKNTAYLQMNSLRAEDTAVYYCARDNFGGYFDYWGQGTLVTVSS chain 2: DIQMTQSPSSLSASVGDRVTITCRASQDVSTAVAWYQQKPGKAPKLLIYSASFLYSGVPSRFSGSGSGTDFTLTISSLQPEDFATTYYCQQSYTGTVTFGQGTKVEIKR
pKd: 9.63
